Test: Intestinal S9 Assay (dog GI S9)
Assay type: in vitro ADME
Details: dog, 1.0 mg/mL S9 protein, TRIS pH 7.4, read-out: Dog GI S9 T½
Description: Reagents. Stock solutions of test compounds in dimethyl sulfoxide (DMSO) having a final concentration of 10 mM were prepared and used in all experiments. Sekisui XenoTech (Kansas City, KS) provided pooled intestinal S9 fractions. All other chemicals were purchased from Sigma-Aldrich (St. Louis, MO) or VWR (West Chester, PA). […] Data Analysis. Metabolic stabilities were determined by measuring the rates of disappearance of test compound and positive control substrate. […]
Parameter measured: half-life at 2 μM (h)
Give bare numbers, in h.

Chemical string	Unit of measure	half-life at 2 μM
COC(=O)N[C@H](C(=O)N[C@@H](Cc1ccc(C#Cc2cnc(N3CC4CCC(C3)N4C3COC3)nc2)cc1)[C@H](CN(Cc1c(F)cc(-c2ccn(C(F)F)n2)cc1F)NC(=O)[C@@H](NC(=O)OC)C(C)(C)C(F)(F)F)OC(=O)CC(C)(C)c1c(CC(=O)N[C@@H](CS(=O)(=O)O)C(=O)O)cc(C)cc1OP(=O)(O)O)C(C)(C)C(F)(F)F	h	1

With those in mind, consider the next compound.
Could you tell me which half-life at 2 μM is on file for COC(=O)N[C@H](C(=O)N[C@@H](Cc1ccc(C#Cc2cnc(N3CC4CCC(C3)N4C3COC3)nc2)cc1)[C@H](CN(Cc1c(F)cc(-c2ccn(C(F)F)n2)cc1F)NC(=O)[C@@H](NC(=O)OC)C(C)(C)C(F)(F)F)OC(=O)CC(C)(C)c1c(CC(=O)Nc2cccc(C(=O)O)c2)cc(C)cc1OP(=O)(O)O)C(C)(C)C(F)(F)F ?
6.69

----------
System: HIV-1 IIIB strain
Assay: MT-4 HIV Wild Type Virus Infection Assay (IIIB Virus)
Format: cell-based
Details: Human immunodeficiency virus 1, IIIB, MT4, 120 h, MT-4 cells acutely infected with HIV-1 IIIB, 5 day incubation, Cell-titer glo
Parameter measured: pEC50
Numbers only, as −log10 of the molar value.

Chemical string	pEC50
COC(=O)N[C@H](C(=O)N[C@@H](Cc1ccc(C#Cc2cnc(N3CC4CCC(C3)N4C3COC3)nc2)cc1)[C@H](CN(Cc1c(F)cc(-c2ccn(C(F)F)n2)cc1F)NC(=O)[C@@H](NC(=O)OC)C(C)(C)C(F)(F)F)OC(=O)CC(C)(C)c1c(CC(=O)N2C[C@H](OC)C[C@H]2C(=O)O)cc(C)cc1OP(=O)(O)O)C(C)(C)C(F)(F)F	6.18

Any idea what pEC50 came out for CC[C@H](C)[C@H](NC(=O)Cc1cc(C)cc(OP(=O)(O)O)c1C(C)(C)CC(=O)O[C@@H](CN(Cc1c(F)cc(-c2ccn(C(F)F)n2)cc1F)NC(=O)[C@@H](NC(=O)OC)C(C)(C)C(F)(F)F)[C@H](Cc1ccc(C#Cc2cnc(N3CC4CCC(C3)N4C3COC3)nc2)cc1)NC(=O)[C@@H](NC(=O)OC)C(C)(C)C(F)(F)F)C(=O)O on HIV-1 IIIB strain?
6.25

----------
Target: bovine intestinal alkaline phosphatase (Bos taurus (Bovine))
Sequence (P19111 20-506): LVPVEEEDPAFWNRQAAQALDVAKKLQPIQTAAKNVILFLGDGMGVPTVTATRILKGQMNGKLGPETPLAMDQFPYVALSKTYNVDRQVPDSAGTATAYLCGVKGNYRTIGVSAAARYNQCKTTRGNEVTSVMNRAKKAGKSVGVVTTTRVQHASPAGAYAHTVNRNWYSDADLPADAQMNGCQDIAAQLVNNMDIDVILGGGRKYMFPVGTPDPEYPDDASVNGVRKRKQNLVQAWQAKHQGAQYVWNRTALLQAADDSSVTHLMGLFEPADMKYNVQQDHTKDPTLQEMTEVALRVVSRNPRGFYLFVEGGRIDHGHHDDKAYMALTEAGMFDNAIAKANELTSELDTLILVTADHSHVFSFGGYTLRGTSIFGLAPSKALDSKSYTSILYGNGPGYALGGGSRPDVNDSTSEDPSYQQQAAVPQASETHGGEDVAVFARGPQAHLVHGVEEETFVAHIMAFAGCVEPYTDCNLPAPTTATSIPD
Assay: BiALP: conversion by bovine intestinal alkaline phosphatase
Assay type: in vitro ADME
Details: 2 μM substrate, 100 ng/mL iALP, Tris pH 7.8, 37° C., 60 minutes
For each record, write down the corresponding [Compound].
Numbers only, in nM.

Worked set:
Chemical string	Parameter measured	Result
COC(=O)N[C@H](C(=O)N[C@@H](Cc1ccc(C#Cc2cnc(N3CC4CCC(C3)N4C3COC3)nc2)cc1)[C@H](CN(Cc1c(F)cc(-c2ccn(C(F)F)n2)cc1F)NC(=O)[C@@H](NC(=O)OC)C(C)(C)C(F)(F)F)OC(=O)CC(C)(C)c1c(CC(=O)N[C@@H](Cc2ccc(C(=O)O)cc2)C(=O)O)cc(C)cc1OP(=O)(O)O)C(C)(C)C(F)(F)F	[Compound]	1787.4
COC(=O)N[C@H](C(=O)N[C@@H](Cc1ccc(C#Cc2cnc(N3CC4CCC(C3)N4C3COC3)nc2)cc1)[C@H](CN(Cc1c(F)cc(-c2ccn(C(F)F)n2)cc1F)NC(=O)[C@@H](NC(=O)OC)C(C)(C)C(F)(F)F)OC(=O)CC(C)(C)c1c(CC(=O)N[C@H]2C[C@H](C(=O)O)C2)cc(C)cc1OP(=O)(O)O)C(C)(C)C(F)(F)F	[Compound]	1688.4
COC(=O)N[C@H](C(=O)N[C@@H](Cc1ccc(C#Cc2cnc(N3CC4CCC(C3)N4C3COC3)nc2)cc1)[C@H](CN(Cc1c(F)cc(-c2ccn(C(F)F)n2)cc1F)NC(=O)[C@@H](NC(=O)OC)C(C)(C)C(F)(F)F)OC(=O)CC(C)(C)c1c(CC(=O)N(CCCC(=O)O)CC(=O)O)cc(C)cc1OP(=O)(O)O)C(C)(C)C(F)(F)F	[Compound]	1709.4

For every listed record, write down its [Compound].
1. COC(=O)N[C@H](C(=O)N[C@@H](Cc1ccc(C#Cc2cnc(N3CC4CCC(C3)N4C3COC3)nc2)cc1)[C@H](CN(Cc1c(F)cc(-c2ccn(C(F)F)n2)cc1F)NC(=O)[C@@H](NC(=O)OC)C(C)(C)C(F)(F)F)OC(=O)CC(C)(C)c1c(CC(=O)N2CC(C)(C)C[C@H]2C(=O)O)cc(C)cc1OP(=O)(O)O)C(C)(C)C(F)(F)F
2. COC(=O)N[C@H](C(=O)N[C@@H](Cc1ccc(C#Cc2cnc(N3CC4CCC(C3)N4C3COC3)nc2)cc1)[C@H](CN(Cc1c(F)cc(-c2ccn(C(F)F)n2)cc1F)NC(=O)[C@@H](NC(=O)OC)C(C)(C)C(F)(F)F)OC(=O)CC(C)(C)c1c(CC(=O)NC23CC4CC(C2)CC(C(=O)O)(C4)C3)cc(C)cc1OP(=O)(O)O)C(C)(C)C(F)(F)F
3. COC(=O)N[C@H](C(=O)N[C@@H](Cc1ccc(C#Cc2cnc(N3CC4CCC(C3)N4C3COC3)nc2)cc1)[C@H](CN(Cc1c(F)cc(-c2ccn(C(F)F)n2)cc1F)NC(=O)[C@@H](NC(=O)OC)C(C)(C)C(F)(F)F)OC(=O)CC(C)(C)c1c(CC(=O)NCCCC(=O)O)cc(C)cc1OP(=O)(O)O)C(C)(C)C(F)(F)F

[1611.1, 2296.1, 2153.3]

----------
Assay: PBS Stability Assay
Format: physicochemical
Settings: buffer, pH 7.4, 2 μM, phosphate buffered saline pH 7.4; read-out: PBS T½
Outcome label depends on half-life at 2 μM relative to 5 h: at/above gives Criterion met, below gives Criterion not met.

Take a look at these entries with their results.
Chemical string	Class name
COC(=O)N[C@H](C(=O)N[C@@H](Cc1ccc(C#Cc2cnc(N3CC4CCC(C3)N4C3COC3)nc2)cc1)[C@H](CN(Cc1c(F)cc(-c2ccn(C(F)F)n2)cc1F)NC(=O)[C@@H](NC(=O)OC)C(C)(C)C(F)(F)F)OC(=O)OCOC(=O)CC(C)(C)c1c(CC(=O)NCC(=O)NS(C)(=O)=O)cc(C)cc1OP(=O)(O)O)C(C)(C)C(F)(F)F	Criterion met
COC(=O)N[C@H](C(=O)N[C@@H](Cc1ccc(C#Cc2cnc(N3CC4CCC(C3)N4C3COC3)nc2)cc1)[C@H](CN(Cc1c(F)cc(-c2ccn(C(F)F)n2)cc1F)NC(=O)[C@@H](NC(=O)OC)C(C)(C)C(F)(F)F)OC(=O)CC(C)(C)c1c(CC(=O)N(CCCC(=O)O)CC(=O)O)cc(C)cc1OP(=O)(O)O)C(C)(C)C(F)(F)F	Criterion met
COC(=O)N[C@H](C(=O)N[C@@H](Cc1ccc(C#Cc2cnc(N3CC4CCC(C3)N4C3COC3)nc2)cc1)[C@H](CN(Cc1c(F)cc(-c2ccn(C(F)F)n2)cc1F)NC(=O)[C@@H](NC(=O)OC)C(C)(C)C(F)(F)F)OC(=O)CC(C)(C)c1c(C)cc(C(=O)O)cc1OP(=O)(O)O)C(C)(C)C(F)(F)F	Criterion not met
COC(=O)N[C@H](C(=O)N[C@@H](Cc1ccc(C#Cc2cnc(N3CC4CCC(C3)N4C3COC3)nc2)cc1)[C@H](CN(Cc1c(F)cc(-c2ccn(C(F)F)n2)cc1F)NC(=O)[C@@H](NC(=O)OC)C(C)(C)C(F)(F)F)OC(=O)CC(C)(C)c1c(CC(=O)Nc2ccc(S(=O)(=O)O)cc2)cc(C)cc1OP(=O)(O)O)C(C)(C)C(F)(F)F	Criterion met

Dear colleague, could you confirm whether COC(=O)N[C@H](C(=O)N[C@@H](Cc1ccc(C#Cc2cnc(N3CC4CCC(C3)N4C3COC3)nc2)cc1)[C@H](CN(Cc1c(F)cc(-c2ccn(C(F)F)n2)cc1F)NC(=O)[C@@H](NC(=O)OC)C(C)(C)C(F)(F)F)OC(=O)CC(C)(C)c1c(CC(=O)N(C)CC(=O)O)cc(C)cc1OP(=O)(O)O)C(C)(C)C(F)(F)F has half-life at 2 μM at or above 5 h?
Criterion not met
